test system: Candida glabrata
Below, each of the molecules is paired with its reported MIC value.

{"Molecule": "CCOC(=O)C1=C(C)NC(=S)NC1c1coc2ccc(OC)cc2c1=O (centres unmarked) [Compound 4e]", "MIC, µg/mL": 32}
{"Molecule": "CCOC(=O)C1=C(C)NC(=S)NC1c1coc2ccccc2c1=O (centres unmarked) [Compound 4b]", "MIC, µg/mL": 66}
{"Molecule": "CC1=C(C(=O)NN)C(c2coc3ccccc3c2=O)NC(=S)N1 (centres unmarked) [Compound 6b]", "MIC, µg/mL": 60}
{"Molecule": "CC1=C(C(=O)NN)C(c2coc3ccccc3c2=O)NC(=O)N1 (centres unmarked) [Compound 6a]", "MIC, µg/mL": 68}
{"Molecule": "COc1ccc2occ(C3NC(=O)NC(C)=C3C(=O)NN)c(=O)c2c1 (centres unmarked) [Compound 6e]", "MIC, µg/mL": 30}
{"Molecule": "CC1=C(C(=O)NN)C(c2coc3ccc(F)cc3c2=O)NC(=S)N1 (centres unmarked) [Compound 6d]", "MIC, µg/mL": 40}
{"Molecule": "CCOC(=O)C1=C(C)NC(=O)NC1c1coc2ccc(F)cc2c1=O (centres unmarked) [Compound 4c]", "MIC, µg/mL": 58}
{"Molecule": "CC1=C(C(=O)NN)C(c2coc3ccc(F)cc3c2=O)NC(=O)N1 (centres unmarked) [Compound 6c]", "MIC, µg/mL": 52}
